# credit: ChEMBL document CHEMBL3885881

Species: Rattus norvegicus
Assay: DrugMatrix - Regimen: Daily Repeat
Assay type: toxicity, organism-based, Sprague-Dawley
Set-up: regimen Daily Repeat, gender Male, age 6-8 weeks
Test settings: in vivo, po, 1500 mg/kg, 72 h, tissue Blood, route oral GAVAGE, dose level High, time 3 day, vehicle .5 % CMC
I'd appreciate it if you marked entries t when ABSOLUTE MONOCYTE is lower than 200 CELLS/uL and f when it is not.

# Molecule, Discrete label
rows = [
    ("O=C(N[C@H](CO)[C@H](O)c1ccc([N+](=O)[O-])cc1)C(Cl)Cl", "f"),
    ("CNC(=C[N+](=O)[O-])NCCSCc1ccc(CN(C)C)o1", "t"),
    ("C[C@]1(Cn2ccnn2)[C@H](C(=O)O)N2C(=O)C[C@H]2S1(=O)=O", "t"),
    ("CO[C@H]1/C=C/O[C@@]2(C)Oc3c(C)c(O)c4c(c3C2=O)C2=NC3(CCN(CC(C)C)CC3)NC2=C(NC(=O)/C(C)=C\\C=C\\[C@H](C)[C@H](O)[C@@H](C)[C@@H](O)[C@@H](C)[C@H](OC(C)=O)[C@@H]1C)C4=O", "f"),
    ("NC(=O)c1cnccn1 [PYRAZINAMIDE]", "t"),
    ("Cc1cc(=O)n(-c2ccccc2)n1C [ANTIPYRINE]", "f"),
    ("Cc1ccc(S(=O)(=O)NC(=O)NN2CC3CCCC3C2)cc1 (configuration not stated) [GLICLAZIDE]", "f"),
]

----------
Overview of reported EOSINOPHIL across a group of molecules:
Species: Rattus norvegicus
Assay: DrugMatrix - Regimen: Daily Repeat
Assay type: toxicity, organism-based, Sprague-Dawley
Set-up: regimen Daily Repeat, gender Male, age 6-8 weeks
Test settings: in vivo, po, 0 mg/kg, 72 h, tissue Blood, route oral GAVAGE, dose level Control, time 3 day, vehicle .5 % CMC

# Molecule, Value units, EOSINOPHIL
records = [
    ("Clc1ccc2c(c1)C(N1CCNCC1)=Nc1ccccc1O2", "%", 0.17),
    ("CN1C(=O)COc2c(C(=O)NC3CN4CCC3CC4)cc(Cl)cc21 (stereo not given)", "%", 0.33),
    ("C[C@]1(Cn2ccnn2)[C@H](C(=O)O)N2C(=O)C[C@H]2S1(=O)=O", "%", 1.33),
    ("C[C@](O)(CS(=O)(=O)c1ccc(F)cc1)C(=O)Nc1ccc(C#N)c(C(F)(F)F)c1 [(R)-BICALUTAMIDE]", "%", 1),
    ("C#C[C@]1(O)CC[C@H]2[C@@H]3CCc4cc(OC)ccc4[C@H]3CC[C@@]21C", "%", 0),
]

----------
Species on record: Rattus norvegicus
Assay: DrugMatrix - Regimen: Daily Repeat
Format: toxicity, organism-based, Sprague-Dawley
Design: regimen Daily Repeat, gender Male, age 6-8 weeks
Test settings: in vivo, iv, 0 mg/kg, 120 h, tissue Plasma, dose level Control, time 5 day, vehicle 100 % SALINE

# Compound structure, TOTAL PROTEIN (G/DL)
measured = [
    ("CCC1=C[C@@H]2CN(C1)Cc1c([nH]c3ccccc13)[C@@](C(=O)OC)(c1cc3c(cc1OC)N(C)[C@H]1[C@@](O)(C(=O)OC)[C@H](OC(C)=O)[C@]4(CC)C=CCN5CC[C@]31[C@@H]54)C2", 6.23),
    ("COc1cccc2c1C(=O)c1c(O)c3c(c(O)c1C2=O)C[C@@](O)(C(=O)CO)C[C@@H]3O[C@H]1C[C@H](N)[C@H](O)[C@H](C)O1", 6.08),
    ("CC[C@]1(O)C[C@@H]2CN(CCc3c([nH]c4ccccc34)[C@@](C(=O)OC)(c3cc4c(cc3OC)N(C)[C@H]3[C@@](O)(C(=O)OC)[C@H](OC(C)=O)[C@]5(CC)C=CCN6CC[C@]43[C@@H]65)C2)C1", 6.08),
]
